assay: NCI Yeast Anticancer Drug Screen. Data for the rad50 strain (AID 155);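 note: 0% = growth of vehicle-only cultures of the same strain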; conditions: S. cerevisiae rad50 strain growth inhibition; at 50.0 µM; active compounds read high
This is part of a sample that, as a whole, favours compounds with a hit. Of some 79,000 tested, about 15% had one in any assay. Active and inactive are the calls of the source. Cut-off read from the data, not from the text of the source: active = growth inhibition above about 70%; inactive = the rest.
measured.quantity: growth inhibition

molecule=CCCCCCCC/C=C\CCCCCCCC(=O)N(C)CC(=O)O measurement="43.2% (inactive)"
molecule="C/C=C(\\C)C(=O)N1c2ccccc2CC1c1c(C)[nH]c2ccccc12 (stereo unspecified)" measurement="29.1% (inactive)"
molecule=O=C=Nc1ccc(Cc2ccc(N=C=O)cc2)cc1 measurement="-13.7% (inactive)"
molecule=CCC(=O)OCC[N+](C)(C)C measurement="-29.2% (inactive)"
molecule=N#Cc1sc2c(c1OC(=O)c1ccc(C(F)(F)F)cc1)c(=O)n(-c1ccccc1)c(=S)n2-c1ccccc1 measurement="-11.9% (inactive)"
molecule=N#CCC(=O)c1ccc(N)cc1 measurement="16.1% (inactive)"
molecule="O=C1C2C(C(=O)N1c1ccccc1)C1(Br)c3ccccc3C2(Br)C2C(=O)N(c3ccccc3)C(=O)C21 (stereo unspecified)" measurement="-9.6% (inactive)"
molecule="COC1OCC(NC(=O)CNC(=O)CCCCCCCCCCCCC(C)C)C(O)C1O (stereo unspecified)" measurement="16.2% (inactive)"
molecule=COc1ccc(/C=C2\N=C(c3ccccc3)OC2=O)c(Br)c1OC(C)=O measurement="-20.1% (inactive)"
molecule=CC(=O)Nc1ccc(-c2nnc(SCC(=O)Nc3cccc(C)c3)o2)cc1 measurement="5.2% (inactive)"
molecule=CC1=C(C(=O)N(C)c2ccc(Cl)c(C(=O)OC(C)C)c2)SCCO1 measurement="-19.6% (inactive)"
